Target: Alpha-crystallin B chain (Homo sapiens, UniProt P02511, R120G)
Sequence (P02511 whole entry R120G): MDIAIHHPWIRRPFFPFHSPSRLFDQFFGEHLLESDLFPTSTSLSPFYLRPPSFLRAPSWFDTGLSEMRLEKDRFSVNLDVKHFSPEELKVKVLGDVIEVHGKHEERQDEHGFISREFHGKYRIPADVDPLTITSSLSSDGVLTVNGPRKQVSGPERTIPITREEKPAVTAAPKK
Assay: Induction of redissolving of aggregated alpha-crystallin B R120G mutant (unknown origin) incubated for 24 hrs by ThT-fluorescence based assay
READOUT: EC50 (µM)
Please respond with the number in µM and leave the unit unwritten.

## Task Would you mind telling me what EC50 value was observed for `C[C@H](CCCC(C)(C)O)[C@H]1CC[C@@]2(C)C3=C(CC[C@]12C)[C@@]1(C)CC[C@H](O)C(C)(C)[C@@H]1CC3` ?
## Result 3.12

---

Tested on: Beta-crystallin B2 (Homo sapiens), P43320 [V187E]
Sequence (P43320 whole entry V187E): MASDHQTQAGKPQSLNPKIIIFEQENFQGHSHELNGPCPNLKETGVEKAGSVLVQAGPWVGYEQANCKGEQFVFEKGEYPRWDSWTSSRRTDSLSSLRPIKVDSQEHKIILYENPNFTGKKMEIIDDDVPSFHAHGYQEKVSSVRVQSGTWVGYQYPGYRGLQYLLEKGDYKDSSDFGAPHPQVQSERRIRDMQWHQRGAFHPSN
Experiment: Inhibition of beta-crystallin B2 V187E mutant (unknown origin)-induced cytotoxicity in human HLE-B3 cells assessed as increase in cell viability at 0.04 to 4 uM incubated for 12 hrs by CCK8 assay
Type: cell-based
Active and inactive are the calls of the source. No cut-off for these calls is given here.
Respond with a class label; see Y (active), N (inactive)

| STRUCTURE_AS_SMILES | CATEGORY_LABEL |
| --- | --- |
| C[C@H](CCCC(C)(C)O)[C@H]1CC[C@@]2(C)C3=CC[C@H]4C(C)(C)[C@@H](O)CC[C@]4(C)C3=CC[C@]12C | Y |
| C[C@H](CCCC(C)(C)O)[C@H]1CC[C@H]2[C@@H]3CC=C4C[C@@H](O)CC[C@]4(C)[C@H]3CC[C@]12C | N |
| C[C@H](CCCC(C)(C)O)[C@H]1CC[C@@]2(C)C3=C(CC[C@]12C)[C@@]1(C)CCC(=O)C(C)(C)[C@@H]1CC3 | Y |

## Task Could you please tell me the result logged for `C[C@H](CCCC(C)(C)O)[C@H]1CC[C@@]2(C)C3=C(CC[C@]12C)[C@@]1(C)CC[C@H](O)C(C)(C)[C@@H]1CC3` in this assay?
## Result Y

## Task What outcome does the record of this test show for `C[C@H](CCCC(C)(C)O)[C@H]1CC[C@@]2(C)C3=C(CC[C@]12C)[C@@]1(C)C[C@@H](F)[C@@H](O)C(C)(C)[C@@H]1CC3` ?
## Result Y

## Task So what was the verdict on `C[C@H](CCCC(C)(C)O)[C@H]1CC[C@@]2(C)C3=C(CC[C@]12C)[C@@]1(C)C[C@@H](F)[C@H](O)C(C)(C)[C@@H]1CC3` in this test?
## Result Y

---

System: Gamma-crystallin C (Homo sapiens), P07315 [G129C]
Sequence (P07315 whole entry G129C): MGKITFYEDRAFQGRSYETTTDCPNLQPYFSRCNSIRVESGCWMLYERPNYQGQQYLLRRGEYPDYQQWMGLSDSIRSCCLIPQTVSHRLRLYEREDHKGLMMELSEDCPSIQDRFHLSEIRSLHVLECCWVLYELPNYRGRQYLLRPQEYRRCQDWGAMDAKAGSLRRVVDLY
Test: Inhibition of gamma-crystallin C G129C mutant (unknown origin)-induced cytotoxicity in human HeLa cells assessed as increase in cell viability at 0.04 to 4 uM incubated for 12 hrs by CCK8 assay
Format: cell-based
Activity calls are given as the source filed them. No cut-off for these calls is given here.
Respond using exactly one of the listed classes: active, inactive

## Task Recorded test outcome, item `C[C@H](CCCC(C)(C)O)[C@H]1CC[C@@]2(C)C3=C(CC[C@]12C)[C@@]1(C)CC[C@H](O)C(C)(C)[C@@H]1CC3`
## Result active

## Task Each compound tested received a call. Report the one for `C[C@H](CCCC(C)(C)O)[C@H]1CC[C@H]2[C@@H]3CC=C4C[C@@H](O)CC[C@]4(C)[C@H]3CC[C@]12C` .
## Result inactive

## Task What classification did `C[C@H](CCCC(C)(C)O)[C@H]1CC[C@@]2(C)C3=C(CC[C@]12C)[C@@]1(C)C[C@@H](F)[C@@H](O)C(C)(C)[C@@H]1CC3` end up with in this test?
## Result active

## Task Query: recorded result category for `C[C@H](CCCC(C)(C)O)[C@H]1CC[C@@]2(C)C3=CC[C@H]4C(C)(C)[C@@H](O)CC[C@]4(C)C3=CC[C@]12C` in this test
## Result active

## Task Tell me the recorded outcome of this test for `C[C@H](CCCC(C)(C)O)[C@H]1CC[C@@]2(C)C3=C(CC[C@]12C)[C@@]1(C)C[C@@H](F)[C@H](O)C(C)(C)[C@@H]1CC3` .
## Result active

## Task Short answer needed: outcome of this test for `C[C@H](CCCC(C)(C)O)[C@H]1CC[C@@]2(C)C3=C(CC[C@]12C)[C@@]1(C)CCC(=O)C(C)(C)[C@@H]1CC3` ?
## Result active
